- Test system: MDA-MB-231 breast
- PROCEDURE_DETAILS: NCI tumour cell line growth inhibition, 48 h
// reported GI50 per item

These recorded examples may help you get a feel for the data.
- MOLECULE: "CCCCNc1ccc(Nc2ccccc2)cc1"
  GI50: "16.9 µM"
- MOLECULE: "C[C@@H](CO)NC(=O)c1cc(-c2ccc(Cl)cc2)nn(-c2cnn(C)c2)c1=O"
  GI50: "51.5 µM"
- MOLECULE: "CCCCOC1OC(COC(=O)C(C)C)C(OC(=O)C(C)C)C(O)C1OC1OC(C)C(OC(=O)CCC)C(OC(=O)C(C)C)C1O (centres undefined)"
  GI50: "10.1 µM"
- MOLECULE: "NC(=O)c1sc(-n2cnc3cc(C(F)(F)F)ccc32)cc1OCc1ccccc1Br"
  GI50: "> 17.6 µM"
- MOLECULE: "NC(CSSCC(N)C(=O)O)C(=O)O (centres undefined)"
  GI50: "> 100 µM"

Reported GI50 of O=C1N(Cc2ccccc2Cl)c2ccccc2C12NN=C(c1cccc(Cl)c1)S2 (centres undefined) : 2.02 µM

Entry CC1(C)Cc2c(Br)c(Br)c(Br)c(OCC(O)CN3CCN(c4ccccn4)CC3)c2O1 (centres undefined) — recorded GI50 = 12.3 µM

Just so you know, measured GI50 for `O=[N+]([O-])c1cc([N+](=O)[O-])c(Cl)cc1Cl` came out at 1.94 µM

Measured GI50, `COc1ccc(CCN2CCC(CN(C)Cc3cnn(-c4ccccc4)c3)CC2)cc1` : 3.58 µM

###

// TGI lookup, one value per entry
- Test system: HOP-92 NSCLC
- PROCEDURE_DETAILS: NCI tumour cell line growth inhibition, 48 h

Solved cases below.
- COMPOUND: "Cc1c2c(n(CC(c3ccccc3)c3ccccc3)c1C)NN=C(C#N)S2(=O)=O"
  MEASURED_TARGET: "HOP-92 NSCLC"
  METRIC: "TGI"
  MEASURED_VALUE: "> 100 µM"
- COMPOUND: "NC(=O)NC1C(C(=O)O)N(Cc2ccccc2)C(=O)N1Cc1ccccc1 (stereo unspecified)"
  MEASURED_TARGET: "HOP-92 NSCLC"
  METRIC: "TGI"
  MEASURED_VALUE: "> 100 µM"
- COMPOUND: "COC(=O)C(C(=O)OC)C(Br)C(Br)C(Br)c1ccccc1 (stereo unspecified)"
  MEASURED_TARGET: "HOP-92 NSCLC"
  METRIC: "TGI"
  MEASURED_VALUE: "25.3 µM"
- COMPOUND: "CC(=O)c1ccc(NC(=O)COC(=O)c2cccc3c(=O)c4ccccc4[nH]c23)cc1"
  MEASURED_TARGET: "HOP-92 NSCLC"
  METRIC: "TGI"
  MEASURED_VALUE: "> 100 µM"
- COMPOUND: "NC(=O)CC(N=Cc1nc(-c2ccccc2)oc1O)C(=O)O (stereo unspecified)"
  MEASURED_TARGET: "HOP-92 NSCLC"
  METRIC: "TGI"
  MEASURED_VALUE: "> 100 µM"

TGI recorded for this compound, `Cc1nc2ccccc2nc1N=Nc1ccccc1` , is 43.9 µM

###

- Tested on: SNB-75 CNS
- PROCEDURE_DETAILS: NCI tumour cell line growth inhibition, 48 h
METRIC: GI50

Take a look at these entries with their results.
- COMPOUND: "O=Cc1ccc(-c2ccc(-c3nc4ccccc4s3)cc2)s1"
  GI50: "> 100 µM"
- COMPOUND: "O=C1CC/C(=C/COc2cc(=O)oc3ccccc23)O1"
  GI50: "1.58 µM"
- COMPOUND: "Cc1nc2cc(Nc3nc(Nc4ccc(F)cc4)nc(N4CCOCC4)n3)ccc2n1Cc1ccccc1"
  GI50: "2.73 µM"
- COMPOUND: "Nc1nc(N)c2nc3c(nc2n1)CCCCCCCCCC3"
  GI50: "5.35 µM"

# GI50 (compound: `CCCCNc1ccc(Nc2ccccc2)cc1` ) is 8.46 µM

Please fill in: GI50 reported for CN(CCCCCl)P(=O)(OCc1ccc([N+](=O)[O-])o1)OCC1OC(n2cnc([N+](=O)[O-])c2N)C(O)C1O (centres undefined) = > 100 µM

Kindly note the recorded GI50 for `Cc1nc2ccccc2nc1N=Nc1ccccc1` , which is 18.3 µM

// recorded GI50 for `CN1CCN(c2nc(-c3csc(-c4cccs4)n3)cc3ccccc23)CC1` : 1.36 µM

compound O=C1N(Cc2ccccc2Cl)c2ccccc2C12NN=C(c1cccc(Cl)c1)S2 (centres undefined) , GI50 observed: 1.47 µM

###

- System: NCI-H226 lung
- PROCEDURE_DETAILS: NCI tumour cell line growth inhibition, 48 h
METRIC: TGI (µM)
Report as a plain number; the unit µM is understood.

- MOLECULE: "Cc1cccc(N2C(=O)C3c4[nH]c5ccc(C)cc5c4C4CCC(C(C)(C)C)CC4C3C2=O)c1 (stereo not given)"
  MEASURED_TARGET: "NCI-H226 lung"
  TGI, µM: 36.5
- MOLECULE: "O=C(CC1C=Cc2ccccc2N1C(=O)c1ccccc1)c1ccccc1 (stereo not given)"
  MEASURED_TARGET: "NCI-H226 lung"
  TGI, µM: 99.9
- MOLECULE: "CC(C)c1ccccc1SCc1cc(=O)cc(CSc2ccccc2C(C)C)o1"
  MEASURED_TARGET: "NCI-H226 lung"
  TGI, µM: 41.7

TGI measured on `CC1(C)COC2=C(C1)C(=O)c1ccccc1C2=O` = 4.8

###

- Test system: RXF 393 renal
- PROCEDURE_DETAILS: NCI tumour cell line growth inhibition, 48 h
METRIC: TGI

The following compounds have reported results that may help.
- COMPOUND: "C[C@]12CC(c3ccccc3O1)C(C(=O)Nc1nc(C34CC5CC(CC(C5)C3)C4)cs1)C(=O)N2 (stereo not given in full)"
  METRIC: "TGI"
  MEASURED_VALUE: "> 100 µM"
- COMPOUND: "COCCOCCOCCOc1cccc2c1C(=O)c1cccc(OCCOCCOCCOC)c1C2=O"
  METRIC: "TGI"
  MEASURED_VALUE: "> 100 µM"
- COMPOUND: "CC(C)=CC[C@]12CCN(C)[C@H]1N(S(=O)(=O)c1ccccc1)c1ccccc12"
  METRIC: "TGI"
  MEASURED_VALUE: "> 71.7 µM"
- COMPOUND: "COc1cnc2c(c1)C(=O)c1c-2n(CCCN2CCC(O)CC2)c(=O)c2cc(Cl)ccc12"
  METRIC: "TGI"
  MEASURED_VALUE: "1.72 µM"
- COMPOUND: "O=C(NCCCl)SCCO"
  METRIC: "TGI"
  MEASURED_VALUE: "> 100 µM"
- COMPOUND: "COc1ccc(-c2c(-c3ccccc3)c(C)nc3nc(SC)nc(SC)c23)cc1OC"
  METRIC: "TGI"
  MEASURED_VALUE: "> 100 µM"

The recorded TGI for Cc1cccc2c3c(sc12)C(c1ccc(F)cc1)C(C#N)=C(N)O3 (stereo not given) is 0.0825 µM

So for C=C=CC(NC(=O)c1ccccc1)(C(=O)O)C(F)(F)F (stereo not given) , the logged TGI turned out to be > 100 µM

Recorded result, CC1(C)OC2OC(C(COS(=O)(=O)C(F)(F)F)N=[N+]=[N-])C(OC(=O)c3ccccc3)C2O1 (stereo not given) , TGI: > 100 µM

Reported TGI of `CCOC(=O)/C=C(\C(=O)OCC)n1cc(C)c(=O)n(Cc2cnnn2COCCOC(C)=O)c1=O` : 13.2 µM

###

- Tested on: DMS 273 small cell lung
- PROCEDURE_DETAILS: NCI tumour cell line growth inhibition, 48 h
Below, each entry is listed with its recorded TGI.

Below, each entry is followed by its recorded TGI result.
- COMPOUND: "COc1ccc(NC(=O)CC(=O)n2nc(C)c(N=Nc3ccccc3C(=O)O)c2C)cc1"
  TGI: "> 100 µM"
- COMPOUND: "CCCCCCCCCCCc1c(O)c(=O)c2c(oc3c(=O)c(CCCCCCCCCCC)c(O)c(=O)c3n2-c2ccc(N(C)C)cc2)c1=O"
  TGI: "56.3 µM"

Summary: `O=C(O)/C=C/c1c[nH]c(=O)[nH]c1=O` , DMS 273 small cell lung, TGI = > 500 µM

Fill in: DMS 273 small cell lung TGI for O=C(CCCN1CCC(C(O)c2ccc(F)cc2)CC1)c1ccc(F)cc1 (stereo not drawn) = 118 µM

Entry `Cc1ccc(NC(=O)CCc2n[nH]c(=S)o2)cc1` , DMS 273 small cell lung data, TGI value: > 100 µM

Sample `O=C(NCCCl)SCCO` , system: DMS 273 small cell lung. Its TGI is > 100 µM

DMS 273 small cell lung assay, compound `c1ccc(OCc2nnc3n2N=C(c2ccccc2)CS3)cc1` , recorded TGI = > 100 µM

Observed TGI, DMS 273 small cell lung, C=C=CC(NC(=O)c1ccccc1)(C(=O)O)C(F)(F)F (stereo not drawn) : > 100 µM

Each recorded value in this set is attributed to PubChem BioAssay (NCI).
